System: SF-295 CNS
EXPERIMENTAL_DETAILS: NCI tumour cell line growth inhibition, 48 h
RECORDED_METRIC: TGI

Entry `CC(=O)OCCn1c(Cc2ccc(C)cc2)nn(C(C)=O)c1=O` has what TGI?
> 100 µM

Also need `O=C(CSc1ncnc2nc[nH]c12)c1ccccc1` , thanks.
> 100 µM

Also need `Cc1noc(C)c1-n1nc2ccc3nonc3c2n1` , thanks.
98.6 µM

Also need `N#C/C(=C1C=C/C(=N/O)C(Cl)=C/1)c1ccc(Cl)cc1` , thanks.
14.4 µM

Also need `Nc1nc2c(c(=O)[nH]1)CN(CCCN1CCOCC1)CN2` , thanks.
> 100 µM

Please state TGI for every compound in the list that follows.
1. CCc1cccc(C)c1NC(=O)CCc1n[nH]c(=S)o1
2. C=Cc1c(C)c(O)cc2c1-c1ccc(O)c(C)c1CC2
3. COc1ccc2c(c1)[n+](=O)c(C(=O)C/C(=N/NC(=O)c1ccccc1O)C(=O)Nc1ccc(Cl)c(C(F)(F)F)c1)c(C)n2[O-]
4. Clc1ccccc1CN1COc2c(cc(Cl)c3cccnc23)C1
5. O=C1c2c(c(-c3ccccc3)c(-c3ccccc3)c(-c3ccccc3)c2-c2ccccc2)C(=O)N1c1cccc(Br)c1

1: > 100 µM; 2: 32.2 µM; 3: > 100 µM; 4: 16.6 µM; 5: > 100 µM

---

Test system: HT29 colon
EXPERIMENTAL_DETAILS: NCI tumour cell line growth inhibition, 48 h; in the data active = GI50 below about 0.43 µM; inactive = the rest
API: response.call in Y (active), N (inactive)

Identify the outcome logged in this assay for the molecule shown: `C#C[C@@]1(O)[C@@H](CO)O[C@@H](n2cc(Br)c3c(N)ncnc32)[C@@H]1O`
Y

Also need `COc1ccc(/C=C/C(=O)c2ccc(Cl)cc2Cl)cc1` , thanks.
N

Also need `COc1cc2c(cc1O)CC[C@@H]1[C@@H]2CC[C@]2(C)[C@@H](OCCCN(C)C)CC[C@@H]12` , thanks.
Y

Also need CN1C[C@@H](c2ccc(Cl)cc2)[C@]2(NC(=S)N(c3ccc(F)c(Cl)c3)C2=O)[C@@]12C(=O)NC1C=CC(Cl)=C[C@H]12 (stereo partly specified) , thanks.
N

Also need `O=C1CCc2c(Oc3ccc4c(c3)[C@H]3[C@@H](O4)[C@@H]3c3nc4ccc(C(F)(F)F)cc4[nH]3)ccnc2N1` , thanks.
Y

Now consider a different molecule.
Identify the outcome logged in this assay for the molecule shown: `Cc1ccc(-c2nc3nc(-c4ccc(Br)cc4)nc(N4CCCNCC4)c3o2)cc1`
N

---

Tested on: SR leukemia
EXPERIMENTAL_DETAILS: NCI tumour cell line growth inhibition, 48 h
Label yes (1) when TGI is at or above 50 µM; otherwise label no (0).

Is the recorded value of TGI equal to or greater than 50 µM for this molecule? `N#CCCC1(CCC#N)CCCCCCC(CCC#N)(CCC#N)C(=O)C1=O`
yes (1)

Further cases:
Is the recorded value of TGI equal to or greater than 50 µM for this molecule? CC1NOC(=O)C1N=Nc1ccccc1Br (stereo not drawn)
yes (1)

Also need COC(=O)C(=O)C(C(=O)C(=O)Nc1ccc([N+](=O)[O-])cc1[N+](=O)[O-])c1nc2ccc(Cl)cc2[nH]c1=O (stereo not drawn) , thanks.
yes (1)

Also need `COP(=O)(OC)/C(=C/c1cn(C(C)=O)c2ccccc12)NC(C)=O` , thanks.
yes (1)

---

Test system: OVCAR-5 ovarian
EXPERIMENTAL_DETAILS: NCI tumour cell line growth inhibition, 48 h
RECORDED_METRIC: TGI (µM)
One number for each entry, in µM.

Entry N#CC1=C(N)OC2=C(CCCc3ccccc32)C1c1ccc([N+](=O)[O-])cc1 (stereo not given) has what TGI?
50.2

Also need `CC(=O)Nc1c(Br)cc2c(c1Br)Cc1cc(Br)ccc1-2` , thanks.
27

Also need `COc1ccc2c(c1)N=C(N)n1c(nc3ccccc31)S2` , thanks.
23.9

Further cases:
Entry CC1(c2ccccc2)CCN(C2CC2)CO1 (stereo not given) has what TGI?
33.3

---

System: IGROV1 ovarian
EXPERIMENTAL_DETAILS: NCI tumour cell line growth inhibition, 48 h
RECORDED_METRIC: TGI

Field: example entries. Status: answers known.
Entry CC1(C)CC[C@]2(C(=O)O)CC[C@]3(C)C(=CC[C@@H]4[C@@]5(C)CC[C@H](OC6OC(C(=O)O)C(O)C(O)C6O)C(C)(C)[C@@H]5CC[C@]43C)[C@@H]2C1 (stereo partly specified) has what TGI?
35 µM

Also need `OCCCCOC(c1ccccc1)(c1ccccc1)c1ccccc1` , thanks.
> 100 µM

Please state TGI for every molecule in the list that follows.
1. CCOC(=O)C(C)c1nc2cc3cccnc3c(Cl)c2[nH]c1=O (stereo unspecified)
2. CCOC(=O)C1=C(C)NC(C)=C(C(=O)OCC)C1c1ccc(Cl)cc1
3. COC(=O)/C(=N\NC(N)=O)C(C(=O)C(=O)Nc1ccccc1C(=O)OC)c1nc2ccc(C(=O)c3ccccc3)cc2[nH]c1=O (stereo unspecified)
4. CCOP(=O)(CN1CCNCCN(CP(=O)(OCC)OCC)CC1)OCC

1. > 100 µM
2. 30.9 µM
3. > 100 µM
4. > 100 µM

---

Tested on: RXF-631 renal
EXPERIMENTAL_DETAILS: NCI tumour cell line growth inhibition, 48 h
Kindly state TGI for each of the entries shown.

Field: example entries. Status: answers known.
Entry O=C(O)C1CCC(=O)N1C(=O)C(Cl)c1ccccc1 (stereo unspecified) has what TGI?
> 100 µM

Also need O=C(NC1C(O)C(O)C(CO)OC1n1cc(F)c(=O)[nH]c1=O)OCc1ccccc1 (stereo unspecified) , thanks.
> 100 µM

Also need `Cc1nc2c(o1)C(=Nc1ccccc1)c1ccccc1C2=Nc1ccccc1` , thanks.
> 100 µM

Also need C=CCN(N=O)C(=O)NCCCC(NC(C)=O)C(=O)NCc1ccccc1 (stereo unspecified) , thanks.
> 100 µM

Also need `O=S(=O)(SCCCCSS(=O)(=O)c1ccc(Cl)cc1)c1ccc(Cl)cc1` , thanks.
21.5 µM

API: the following record is the query input.
Entry O=C(CC1(O)C(=O)Nc2ccccc21)c1ccc2ccccc2c1 (stereo unspecified) has what TGI?
> 100 µM

---

Test system: UACC-257 melanoma
EXPERIMENTAL_DETAILS: NCI tumour cell line growth inhibition, 48 h
RECORDED_METRIC: log10 of TGI (log10 of the value in µM)
All values: base-10 log of TGI in µM.

Entry `CC12c3c4cccc3Oc3cc(N)cc(c31)Oc1cc(N)cc(c12)O4` has what log10 of TGI?
1.26

Also need `ClC(Cl)c1nc(-c2ccccc2)n2nc(-c3ccccc3)cc2n1` , thanks.
0.72

Also need `CCCNC1=C(C)C(=O)C2=C(C1=O)[C@H](COC(N)=O)[C@]1(OC)[C@@H]3N[C@@H]3CN21` , thanks.
1.59

Also need CC1(c2ccccc2)CCN(C2CC2)CO1 (configuration not stated) , thanks.
1.68

Also need `CCN(CC)c1ccc2cc3ccc(=[N+](CC)CC)cc-3oc2c1` , thanks.
1.02

Please state log10 of TGI for every compound in the list that follows.
1. C=CC[C@@]1(OC(C)=O)C(=O)C(=O)OC1C1COC(C)(C)O1 (some centres not stated)
2. CC1(C)[C@@H]2CC[C@@]1(C)C1(SS1=O)C21Cc2ccccc2C1 (some centres not stated)
3. CC1=C(Cc2ccccc2)C(Cc2ccccc2)=C(C)S1=O
4. Nc1cc(N)c2nc(-c3ccccc3)c(NCCc3ccc(Cl)c(Cl)c3)nc2c1
5. O=C(CCN1CCOCC1)c1ccc(Oc2ccc(F)cc2)cc1

1.50
1.75
1.69
0.66
1.52

---

Tested on: NCI/ADR-RES ovarian
EXPERIMENTAL_DETAILS: NCI tumour cell line growth inhibition, 48 h
Kindly state TGI for each of the entries shown.

Entry COC(=O)C(=O)C(C(=O)C(=O)Nc1ccc([N+](=O)[O-])cc1[N+](=O)[O-])c1nc2ccc(Cl)cc2[nH]c1=O (stereo not given) , system NCI/ADR-RES ovarian: what TGI was measured?
> 100 µM

Please state TGI for every compound in the list that follows.
1. COc1ccc(C2Oc3ccc(Cl)cc3C=C2[N+](=O)[O-])cc1OC (stereo not given)
2. COC(=O)/C=C/CC(=O)NS(C)(=O)=O

["2.12 µM", "> 10 µM"]

Please state TGI for every compound in the list that follows.
1. COc1cc(/C=C2\CCC/C(=C\c3ccc(OC(=O)CCCCC4CCSS4)c(OC)c3)C2=O)ccc1OC(=O)CCCCC1CCSS1 (stereo not given)
2. NC(=O)c1c(Br)n(C2OC(CO)C(O)C2O)c2ncnc(N)c12 (stereo not given)

> 100 µM
12.5 µM

Please state TGI for every compound in the list that follows.
1. O=C(O)c1cccc(SSc2cccc(C(=O)O)c2)c1
2. COc1ccc2cc1Oc1ccc(cc1)CC1c3cc(OC)c(cc3CCN1C)Oc1c(OC)c(OC)cc3c1C(C2)N(C)CC3 (stereo not given)
3. C[N+]1([O-])CCC(O)(C2CC2)CC1 (stereo not given)
4. O=C(/C=C\Sc1ccccn1)c1cccc(Br)c1
5. CCOC(=O)CO/N=C\C1=CC(=O)C2CC1C2(C)C (stereo not given)

["> 100 µM", "29.9 µM", "> 100 µM", "> 100 µM", "> 100 µM"]
